System: German cockroach (Blattella germanica)
Assay: Heating fumigant test in (70 cm)^3 glass chamber (Test Example 3)
Type: in vivo, strain low susceptible to pyrethroids
Settings: ceramic plate heating fumigant, 13.7 mg/plate: 40 mg/m^3, 0.34 m^3 chamber
measured-property: KT50 value (50% knocked-down time) (min)
Please state the figure in min; there is no need to write the unit.

Example results:
{"compound": "BrCCCCCCOCn1c(Br)nc(Br)c1Br [(7)]", "target-or-test-system": "German cockroach (Blattella germanica)", "KT50 value (50% knocked-down time) [min]": 65}
{"compound": "ClCCCCOCn1c(Cl)nc(Cl)c1Cl [(2)]", "target-or-test-system": "German cockroach (Blattella germanica)", "KT50 value (50% knocked-down time) [min]": 41}
{"compound": "BrCCCCOCn1c(Br)nc(Br)c1Br [(3)]", "target-or-test-system": "German cockroach (Blattella germanica)", "KT50 value (50% knocked-down time) [min]": 45}

query: Entry Clc1nc(Cl)n(COCCCCCBr)c1Cl [(5)] : reported KT50 value (50% knocked-down time) = ?
result: 68

query: Please give the measured KT50 value (50% knocked-down time) for this compound: ClCCCCOCn1c(Br)nc(Br)c1Br [(4)]
result: 58

query: Given the entry Clc1nc(Cl)n(COCCCCBr)c1Cl [(1)] , report its measured KT50 value (50% knocked-down time).
result: 28

---

Test: Acute Oral Toxicity Test to Mice (Test Example 1-1)
Conditions: mouse, in vivo, po, mice oral LD50 (a) / German cockroach LD50 (b); read-out: Safety coefficient (a)/(b)
// reported selectivity ratio for each item listed
Keep the answer to the number alone.

{"compound": "BrCCOCn1c(Br)nc(Br)c1Br", "selectivity ratio": 16}

query: GET /values?readout=selectivity ratio&item= `ClCCOCn1c(Br)nc(Br)c1Br`
result: 18

query: Value lookup for selectivity ratio; key = CNC(=O)Oc1ccccc1OC(C)C [(E), Propoxur]
result: 5.6
